biological target: constitutive proteasome β5c subunit (Homo sapiens); assay: Caliper-based proteasome enzymatic activity assay, β5c; conditions: human recombinant constitutive proteasome 0.3 nM, FAM peptide substrate 1 μM, rt 3 h
pIC50: −log10 of the molar value.
Recorded pIC50 values for a group of molecules are listed next.
PARAMETER: pIC50

compound_string=N#CC(=Cc1cc(CO)cc(CCOC(=O)N[C@@H](Cc2ccccc2)B(O)O)c1)c1ccccn1 study_system="constitutive proteasome β5c subunit (Homo sapiens)" reading=5.47
compound_string=N#CC(=Cc1cccc(CCCC(=O)N[C@@H](Cc2ccccc2)B(O)O)c1)n1cncn1 study_system="constitutive proteasome β5c subunit (Homo sapiens)" reading=5.38
compound_string=N#CC(=Cc1ccc(Cl)c(OCCC(=O)N[C@@H](Cc2ccccc2)B(O)O)c1Cl)c1ccccn1 study_system="constitutive proteasome β5c subunit (Homo sapiens)" reading=6.87
compound_string=N#CC(=Cc1cccc(CCOC(=O)N[C@@H](Cc2ccccc2)B(O)O)c1)n1cncn1 study_system="constitutive proteasome β5c subunit (Homo sapiens)" reading=5.76

---

molecular target: PBMC LMP7 (Homo sapiens, UniProt P28062); experiment: Inhibition of proteasome activity in cells (Proteasome-Glo), PBMC/LMP7; type: cell-based; details: 2 h incubation at 37° C.
pIC50: −log10 of the molar value.
PARAMETER: pIC50

compound_string=CN(C)C(=O)C(C#N)=Cc1cccc(COC(=O)N[C@@H](Cc2ccccc2)B(O)O)c1 reading=7.74
compound_string=CC(C)(C)NC(=O)C(C#N)=Cc1cccc(OCCC(=O)N[C@@H](CCc2ccccc2)B(O)O)c1 reading=8.52
compound_string=N#CC(=Cc1cccc(CCOC(=O)N[C@@H](Cc2coc3ccccc23)B(O)O)c1)c1ccccn1 reading=8.52

---

biological target: immunoproteasome LMP2 subunit (Homo sapiens); assay: Caliper-based proteasome enzymatic activity assay, LMP2; details: human recombinant immunoproteasome 0.3 nM, FAM peptide substrate 1 μM, rt 2 h
PARAMETER: IC50

compound_string=Cc1ccc(C[C@H](NC(=O)OCCc2cccc(C=C(C#N)c3ccccn3)c2)B(O)O)cc1 parameter=IC50 reading="> 5000 nM"
compound_string=C[C@H]1COC[C@H](C)N1C(=O)C(C#N)=Cc1cccc(CCOC(=O)N[C@@H](Cc2ccccc2)B(O)O)c1 parameter=IC50 reading="> 5000 nM"
compound_string=N#CC(=Cc1cccc(OCCC(=O)N[C@@H](Cc2ccccc2)B(O)O)c1)C(=O)NC1CCOCC1 parameter=IC50 reading="970 nM"
compound_string=C[C@@H]1COC[C@@H](C)N1C(=O)C(C#N)=Cc1cccc(CCOC(=O)N[C@@H](Cc2ccccc2)B(O)O)c1 parameter=IC50 reading="3560 nM"
compound_string=N#CC(=Cc1cccc(OCCC(=O)N[C@@H](CCc2ccccc2)B(O)O)c1)c1ccccn1 parameter=IC50 reading="> 5000 nM"
compound_string=CN(C(=O)C(C#N)=Cc1cccc(OCCC(=O)N[C@@H](Cc2ccccc2)B(O)O)c1)c1ccccc1 parameter=IC50 reading="100 nM"
compound_string=N#CC(=Cc1ccc(Cl)c(OCCC(=O)N[C@@H](Cc2ccccc2)B(O)O)c1Cl)c1ccccn1 parameter=IC50 reading="325 nM"
compound_string=COCCNC(=O)C(C#N)=Cc1cccc(OCCC(=O)N[C@@H](Cc2ccccc2)B(O)O)c1 parameter=IC50 reading="370 nM"
compound_string=CCN(C)C(=O)C(C#N)=Cc1cccc(CCOC(=O)N[C@@H](Cc2ccccc2)B(O)O)c1 parameter=IC50 reading="> 5000 nM"
compound_string=CN(C(=O)C(C#N)=Cc1cccc(CCOC(=O)N[C@@H](Cc2ccccc2)B(O)O)c1)C(C)(C)C parameter=IC50 reading="2010 nM"
compound_string=Cc1ccc(C[C@H](NC(=O)OCCc2cccc(C=C(C#N)C(=O)N3C4CCC3COC4)c2)B(O)O)cc1 parameter=IC50 reading="> 5000 nM"
compound_string=CN(C)C(=O)C(C#N)=Cc1cccc(COCC(=O)N[C@@H](Cc2ccccc2)B(O)O)c1 parameter=IC50 reading="2900 nM"
compound_string=COCC(C)(C)NC(=O)C(C#N)=Cc1cccc(OCCC(=O)N[C@@H](Cc2ccccc2)B(O)O)c1 parameter=IC50 reading="438 nM"
compound_string=N#CC(=Cc1cccc(CCOC(=O)N[C@@H](Cc2ccccc2)B(O)O)c1)C(=O)N1C2CCC1COC2 parameter=IC50 reading="2320 nM"
compound_string=CC1(C)COCCN1C(=O)C(C#N)=Cc1cccc(CCOC(=O)N[C@@H](Cc2coc3ccccc23)B(O)O)c1 parameter=IC50 reading="> 5000 nM"
compound_string=CN1CCN(C(=O)C(C#N)=Cc2cccc(OCCC(=O)N[C@@H](Cc3ccccc3)B(O)O)c2)CC1 parameter=IC50 reading="170 nM"
compound_string=CCN(CC)C(=O)C(C#N)=Cc1cccc(CCNC(=O)N[C@@H](Cc2ccc(C)cc2)B(O)O)c1 parameter=IC50 reading="> 5000 nM"
compound_string=N#CC(=Cc1cccc(OCCC(=O)N[C@@H](Cc2ccccc2)B(O)O)c1)C(=O)N1CCC1 parameter=IC50 reading="150 nM"
compound_string=CN(C)C(=O)C(C#N)=Cc1ccc(Cl)c(OCCC(=O)N[C@@H](Cc2ccccc2)B(O)O)c1Cl parameter=IC50 reading="223 nM"
compound_string=CCN(CC)C(=O)C(C#N)=Cc1cc(C#N)cc(CCOC(=O)N[C@@H](Cc2ccc(C)cc2)B(O)O)c1 parameter=IC50 reading="> 5000 nM"
compound_string=N#CC(=Cc1cccc(OCCC(=O)N[C@@H](Cc2ccccc2)B(O)O)c1)c1ccccn1 parameter=IC50 reading="84 nM"
compound_string=N#CC(=Cc1cccc(CCNC(=O)N[C@@H](Cc2coc3ccccc23)B(O)O)c1)c1ncccn1 parameter=IC50 reading="> 5000 nM"

---

biological target: constitutive proteasome β5c subunit (Homo sapiens, UniProt P28074); test: Caliper-based proteasome enzymatic activity assay, β5c; conditions: human recombinant constitutive proteasome 0.3 nM, FAM peptide substrate 1 μM, rt 3 h
PARAMETER: IC50 (nM)

compound_string=Cc1ccc(C[C@H](NC(=O)CCOc2cccc(C=C(C#N)c3ccccn3)c2)B(O)O)c(C)c1 reading=92.7
compound_string=N#CC(=Cc1cccc(OCCC(=O)N[C@@H](Cc2ccccc2)B(O)O)c1)C(=O)N1CCC1 reading=120
compound_string=C[C@@H]1COC[C@@H](C)N1C(=O)C(C#N)=Cc1cccc(CCOC(=O)N[C@@H](Cc2coc3ccccc23)B(O)O)c1 reading=71
compound_string=N#CC(=Cc1cccc(OCCC(=O)N[C@@H](Cc2ccccc2)B(O)O)c1F)c1ccccn1 reading=70

---

Recorded pIC50 values for a group of molecules are listed next.
biological target: immunoproteasome LMP7/B5i subunit (Homo sapiens, UniProt P28062); experiment: Caliper-based proteasome enzymatic activity assay, LMP7; assay type: biochemical; settings: human recombinant immunoproteasome 0.3 nM, FAM peptide substrate 1 μM, rt 3 h
pIC50: −log10 of the molar value.
PARAMETER: pIC50

molecule="CN(C)C(=O)C(C#N)=Cc1cccc(COCC(=O)N[C@@H](Cc2ccccc2)B(O)O)c1 [Example 49]" study_system="immunoproteasome LMP7/B5i subunit (Homo sapiens, UniProt P28062)" reading=8.31
molecule="COC(C)(C)CNC(=O)C(C#N)=Cc1cccc(OCCC(=O)N[C@@H](Cc2ccccc2)B(O)O)c1 [Example 48]" study_system="immunoproteasome LMP7/B5i subunit (Homo sapiens, UniProt P28062)" reading=8.29
molecule="CCN(CC)C(=O)C(C#N)=Cc1cccc(OCCC(=O)N[C@@H](Cc2ccccc2)B(O)O)c1 [Example 7]" study_system="immunoproteasome LMP7/B5i subunit (Homo sapiens, UniProt P28062)" reading=8.30
molecule="N#CC(=Cc1cccc(CCOC(=O)N[C@@H](Cc2ccccc2)B(O)O)c1)C(=O)N1C2CCC1COC2 [Example 67]" study_system="immunoproteasome LMP7/B5i subunit (Homo sapiens, UniProt P28062)" reading=9.40
molecule="Cc1ccc(C[C@H](NC(=O)CCOc2cccc(C=C(C#N)C(=O)N(C)C)c2)B(O)O)c(C)c1 [Example 44]" study_system="immunoproteasome LMP7/B5i subunit (Homo sapiens, UniProt P28062)" reading=8.68
molecule="Cn1cnc(C(C#N)=Cc2cccc(CCOC(=O)N[C@@H](Cc3ccccc3)B(O)O)c2)cc1=O [Example 84]" study_system="immunoproteasome LMP7/B5i subunit (Homo sapiens, UniProt P28062)" reading=8.72
molecule="CN1CCN(C(=O)C(C#N)=Cc2cccc(OCCC(=O)N[C@@H](Cc3ccccc3)B(O)O)c2)CC1 [Example 19]" study_system="immunoproteasome LMP7/B5i subunit (Homo sapiens, UniProt P28062)" reading=7.96
molecule="Cc1ccc(C[C@H](NC(=O)OCCc2cccc(C=C(C#N)C(=O)N3[C@H](C)COC[C@H]3C)c2)B(O)O)cc1 [Example 85]" study_system="immunoproteasome LMP7/B5i subunit (Homo sapiens, UniProt P28062)" reading=8.96
molecule="CCN(CC)C(=O)C(C#N)=Cc1cc(C#N)cc(CCOC(=O)N[C@@H](Cc2ccccc2)B(O)O)c1 [Example 104]" study_system="immunoproteasome LMP7/B5i subunit (Homo sapiens, UniProt P28062)" reading=8.48
molecule="CCN(C(=O)C(C#N)=Cc1cccc(CCOC(=O)N[C@@H](Cc2ccccc2)B(O)O)c1)C1CCOCC1 [Example 70]" study_system="immunoproteasome LMP7/B5i subunit (Homo sapiens, UniProt P28062)" reading=9.22
molecule="CN(C)C(=O)C(C#N)=Cc1ccc(Cl)c(OCCC(=O)N[C@@H](Cc2ccccc2)B(O)O)c1Cl [Example 38]" study_system="immunoproteasome LMP7/B5i subunit (Homo sapiens, UniProt P28062)" reading=8.14
molecule="CC(C)(C)NC(=O)C(C#N)=Cc1cccc(COC(=O)N[C@@H](Cc2ccccc2)B(O)O)c1 [Example 16]" study_system="immunoproteasome LMP7/B5i subunit (Homo sapiens, UniProt P28062)" reading=7.48
molecule="CC(C)(C)NC(=O)C(C#N)=Cc1cccc(OCCC(=O)N[C@@H](Cc2coc3ccccc23)B(O)O)c1 [Example 14]" study_system="immunoproteasome LMP7/B5i subunit (Homo sapiens, UniProt P28062)" reading=9.70
molecule="CCN(C(=O)C(C#N)=Cc1cc(C#N)cc(CCOC(=O)N[C@@H](Cc2ccc(C)cc2)B(O)O)c1)C1CCOCC1 [Example 103]" study_system="immunoproteasome LMP7/B5i subunit (Homo sapiens, UniProt P28062)" reading=8.85
molecule="N#CC(=Cc1cccc(CCOC(=O)N[C@@H](Cc2ccccc2)B(O)O)c1)C(=O)N(C1CCOCC1)C1CCOCC1 [Example 72]" study_system="immunoproteasome LMP7/B5i subunit (Homo sapiens, UniProt P28062)" reading=8.85
molecule="N#CC(=Cc1cccc(OCCC(=O)N[C@@H](Cc2ccccc2)B(O)O)c1)C(=O)N1CCOCC1 [Example 9]" study_system="immunoproteasome LMP7/B5i subunit (Homo sapiens, UniProt P28062)" reading=8.10
molecule="N#CC(=Cc1ccc(F)c(OCCC(=O)N[C@@H](Cc2ccccc2)B(O)O)c1)c1ccccn1 [Example 28]" study_system="immunoproteasome LMP7/B5i subunit (Homo sapiens, UniProt P28062)" reading=8.70
